- target-under-test: Peroxisome proliferator-activated receptor gamma (Homo sapiens, UniProt P37231)
- Sequence (P37231 whole entry): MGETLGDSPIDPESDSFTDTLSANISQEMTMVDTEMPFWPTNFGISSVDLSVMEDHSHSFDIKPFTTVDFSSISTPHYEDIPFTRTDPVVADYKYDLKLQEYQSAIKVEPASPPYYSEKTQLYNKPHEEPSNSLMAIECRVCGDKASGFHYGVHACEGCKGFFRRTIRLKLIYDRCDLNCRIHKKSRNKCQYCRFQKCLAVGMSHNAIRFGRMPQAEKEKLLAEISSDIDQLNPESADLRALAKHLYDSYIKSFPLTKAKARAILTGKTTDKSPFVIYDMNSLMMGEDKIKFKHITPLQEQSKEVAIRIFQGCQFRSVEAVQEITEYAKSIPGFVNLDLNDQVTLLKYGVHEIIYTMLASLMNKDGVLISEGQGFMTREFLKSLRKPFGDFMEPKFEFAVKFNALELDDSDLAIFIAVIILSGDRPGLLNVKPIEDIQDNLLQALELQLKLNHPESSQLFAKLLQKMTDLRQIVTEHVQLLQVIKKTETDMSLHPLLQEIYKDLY
Catalogue of EC50 values
experimental-readout: EC50

structure	result
CC(C)c1oc(-c2ccccc2C(F)(F)F)nc1CCc1noc2cc(OC(C)(C)C(=O)O)ccc12	> 10 µM
CC(C)c1oc(-c2c(Cl)cccc2Cl)nc1CCc1noc2cc(OC(C)(C)C(=O)O)ccc12	> 10 µM
CC(C)(Oc1ccc2c(CCc3nc(-c4ccccc4Cl)oc3C(C)(C)C)noc2c1)C(=O)O	> 10 µM
